src = the supplement of paper PMC9170038

Parameter: apparent KD of K4 kissing-loop reporter. Scope: all listed entries.
# Test system: K4 kissing-loop RNA reporter;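 also: bound reporter read as fluorescence of individual clusters on recovered sequencing chips by microscopy, with normalized cluster intensities fitted with a binding model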
# assay_comment: apparent KD of K4 kissing-loop reporter; higher = weaker reporter binding
# cond: Eterna round: R107; input ligand: none
measurement_label: apparent KD of K4 kissing-loop reporter

[
  {
    "biopolymer_sequence": "CGCAGUGAUGUUGCGAAUAUAAUAACGGAAGGAGCGCGUGAAAACGCAGGUAGGUCGCCGAUUGGUAUGAUGGAAACAUCGUACC [Arginine A K4 9]",
    "test_value": "125 nM"
  },
  {
    "biopolymer_sequence": "AUUUUUUUGUCAGGAUAUUAGUGUGGGUUUGGUUUGUUAGUGAUGUUGAUAUUUGGUUUAUGUAUUUAAGAAGGGAUUUAGCGGU [frrvemullin]",
    "test_value": "408 nM"
  },
  {
    "biopolymer_sequence": "GGUAGCAUGGCGGCCGCCACUCGCAUCACAGGCCAUUAACCGCCCUCGUAAAGUGAUGUUUUACAGAGGACCGGGCCAUGCUACC",
    "test_value": "297 nM"
  },
  {
    "biopolymer_sequence": "AAGCAGUCACUCGUAUCCAUCGAAGAUGGUCGAGGACCGGUACGGCCGCCACUCGGAGUGAUGUUCCGAAGACUGCAAAAUAAAA [#SwitchBubble 13]",
    "test_value": "250 nM"
  },
  {
    "biopolymer_sequence": "AAUGUGCAGGGAAGGAGCGUAGUCCAGUGCUGUUGGAGUUAGAUACCAGUGAUGUUGGUUAUACAGGUAGGUCGCCCUAAAGCGC [whbob_Ex_Arginine_B_2th161]",
    "test_value": "140 nM"
  },
  {
    "biopolymer_sequence": "GGAUAGGAUAGAGGAUAUGGAUUAGGCAAGAAUAACUUGUCUUGUAAAUCCAUGAGGAGUGAUGUUCCAGAAGGCUGUCCUAUCG [MatMod 6 - Jieux - Exclusion - FMN B]",
    "test_value": "116 nM"
  },
  {
    "biopolymer_sequence": "AAUAACUAGUAUAUUUUUAAUAAUACAGAUACCAGUGAUAAUAAACACCCUUGGCAGCUGAUCGAGUGAUGUUCGUUUAUUUUAA [JR_SSTheophyA_Sub002]",
    "test_value": "93.3 nM"
  },
  {
    "biopolymer_sequence": "AGGCAAUAUGCGGCCGCCACUUUCAGUGAUGUUGAGACGCGGAAUGUUGUAUAAUAUCGCCACGAAAGGACCGGGCAAGGGAAAG [theeternabot_exclusion_KL_Trp_B_5]",
    "test_value": "542 nM"
  },
  {
    "biopolymer_sequence": "GGUCCGCGGUCGGCCGCCACUGAACAAGACCAGUGAUGUUGGAUCUUCCAGUGCGUUGGCUUUAACAGGACCGGGACCGUGGAGC [Titia]",
    "test_value": "145 nM"
  },
  {
    "biopolymer_sequence": "GGAGGCUAUGCAGGAUAUAGUCGGUUGAGUGAUGUUUAACGACUAAACCUUCUAAGUCACAGCCCGCUAGAAGGGCAUAGCCUCC",
    "test_value": "258 nM"
  },
  {
    "biopolymer_sequence": "UAUUCUUAUCUUAGUUGAUUUCUAAUUAAACGAGGACCGGUACGGCCGCCACUCGGUUAUGAGUGAUGUUCAUGGAAUUACAUAA [JR_SSTryptoA_Sub020]",
    "test_value": "413 nM"
  },
  {
    "biopolymer_sequence": "GGCAGUGAUGUUGCCAGUGGCAGAUUGGAAGGAGCGUGGUGAGACACAGGUAGGUCGCUAAUUGAAGUUGCUGUCACUAAAAUGC [whbob_Ex_Arginine_A_2t131]",
    "test_value": "307 nM"
  },
  {
    "biopolymer_sequence": "UUAGUCUAGAGAAGGAGCGAGUGAUGUUCGCAGCCCAAAUAAUAAUAAUAAUAAGGGCAUCCUCAGGUAGGUCGCUCUAGACAUU [AK5 Exc Arginine B]",
    "test_value": "334 nM"
  },
  {
    "biopolymer_sequence": "AAACUUGCAGUGAUGUUGCAAGUAGGUGAUACCAGCAUCGAAAGAUGCCCUUGGCAGCACCAUCUUGCAACAAAGGUGCUGCCAA [(H1)-(H2)-(T1)-(T2)-(H)'-(T)'_Design7]",
    "test_value": "88.2 nM"
  },
  {
    "biopolymer_sequence": "AAUUUACAAUAAUCAUUUAAAGGAUCAGAAGGAGCGUGAAAUAACACAGGUAGGUCGCUGAGCGAGUGAUGUUCGCUAUAUACAA [JR_ExcArginiA_Sub001]",
    "test_value": "68.8 nM"
  },
  {
    "biopolymer_sequence": "UCUAGUUCUACGGCCGCCACUAUCGAGCACGGGUAUUAGUGAUGUUGAGGUCGUGUCUCCCUCCCUAGGACCGGGUAGAUCUUAG [theeternabot_sameState_KL_Trp_B_4]",
    "test_value": "667 nM"
  },
  {
    "biopolymer_sequence": "UGGUUAAGCAGUGAUGUUGCAAGUAAUGAUACCAGUUAAGAAGAGAACCCUUGGCAGCAUAAAGUGCGCUCUGAUGAGUGUGCUU [whbob_SS_Theo_A_w54]",
    "test_value": "240 nM"
  },
  {
    "biopolymer_sequence": "GAUCUGAACGAAAGUUCGGAUCAUUCCGAUACCAGUAUGGAUUCAUACCCUUGGCAGCGGGAUUCUGCUAUGGAGUGAUGUUCCA [Theophylline A K4 15]",
    "test_value": "475 nM"
  },
  {
    "biopolymer_sequence": "GUGGCACGAAAGUGCCACGCAUCCUCUCCCUAGGAUAUCUGGAAACAGAGAAGGAGGUCAUGAGUGAUGUUCAUCCAGAGGAUGC",
    "test_value": "756 nM"
  },
  {
    "biopolymer_sequence": "GGGAAGGAGUGAUGUUUCUUCUGAAUUUCUAAGGAUAUACGAUGCGGUAGAAGGUAGAUGCCUUGCAGGAAAUGUUCACCACGCG [theeternabot_exclusion_KL_FMN_A_2]",
    "test_value": "150 nM"
  },
  {
    "biopolymer_sequence": "AUUAAUUUCAGAGGAUAUCGUUAUUUUUUAUAUUUUAUUCAUUUAUGCAGUGAUGUUGCUAUUAUUCGAGAAGGCUGAUUUAUAA [JR_ExcFMNB_Sub004]",
    "test_value": "44.9 nM"
  },
  {
    "biopolymer_sequence": "GGAUCCACCAGUGAUGUUGGAGAAAACUUCAAGGAUAUGACGAAAGUCAGAAGGUGGUAGACUGGACAAAGUCCGGUGGGAUCCA [FmnA10 U29+G78]",
    "test_value": "264 nM"
  },
  {
    "biopolymer_sequence": "UGAUACCAGGCGGCCGCCACUCCCGCAGGUCAAAGACCUGCGAAGCUGGUUCUCCAGUGAUGUUGGAGGACCGGGCCUGGUAUCU [FiskerMod 26 - Jieux - Exclusion - Tryptophan B]",
    "test_value": "152 nM"
  }
]
